- System: A375 multi-cell spheroids with HUVEC/MSC, viability
- PROTOCOL_NOTES: Anticancer human tumor A375 cell line growth inhibition [GQUAD];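 further: spheroids exposed to compounds for seven days before readout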
- DETAILS: second compound 0.316 µM; first compound 0.1 µM; hits give low values
VALUE_KIND: viability, T/C (%)

[[record]]
compound = "COc1ccc([C@@H](O)c2cc(-c3ncnc4cc(N5CCOCC5)ccc34)c(F)cc2Cl)nn1 + CN(C)c1ccc(Nc2c3ccc(NC(=O)CCN4CCCC4)cc3nc3cc(NC(=O)CCN4CCCC4)ccc23)cc1"
value_kind = "viability, T/C"
unit_tag = "%"
observed_result = 101

[[record]]
compound = "COc1cc(C2c3cc4c(cc3C(OC3OC5COC(C)OC5C(O)C3O)C3COC(=O)C23)OCO4)cc(OC)c1O (stereo not given) + CN(C)c1ccc(Nc2c3ccc(NC(=O)CCN4CCCC4)cc3nc3cc(NC(=O)CCN4CCCC4)ccc23)cc1"
value_kind = "viability, T/C"
unit_tag = "%"
observed_result = 107

[[record]]
compound = "C#Cc1c(F)ccc2cc(O)cc(-c3ncc4c(N5CC6CCC(C5)N6)nc(OCC56CCCN5CC(F)C6)nc4c3F)c12 (stereo not given) + Cc1cnc(CNC(=O)c2c(=O)c3ccc(N4CCCN(C)CC4)nc3n3c2sc2ccccc23)cn1"
value_kind = "viability, T/C"
unit_tag = "%"
observed_result = 51.8

[[record]]
compound = "O=c1[nH]cc(F)c(=O)[nH]1 + Cc1[nH]c2ccc(F)cc2c1-c1nc2c3cccnc3c3ncccc3c2[nH]1"
value_kind = "viability, T/C"
unit_tag = "%"
observed_result = 92.9

[[record]]
compound = "C=CCn1c(=O)c2cnc(Nc3ccc(N4CCN(C)CC4)cc3)nc2n1-c1cccc(C(C)(C)O)n1 + CN(C)c1ccc(Nc2c3ccc(NC(=O)CCN4CCCC4)cc3nc3cc(NC(=O)CCN4CCCC4)ccc23)cc1"
value_kind = "viability, T/C"
unit_tag = "%"
observed_result = 98.7


====

Listed next: entries and their corresponding viability, T/C.
- Test system: A375 multi-cell spheroids with HUVEC/MSC, viability
- PROTOCOL_NOTES: Anticancer human tumor A375 cell line growth inhibition [GQUAD];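 further: spheroids exposed to compounds for seven days before readout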
- DETAILS: second compound 0.1 µM; first compound 0.00999 µM; hits give low values
VALUE_KIND: viability, T/C

[[record]]
compound = "CC[C@@]1(O)C(=O)OCc2c1cc1n(c2=O)Cc2cc3c(CN(C)C)c(O)ccc3nc2-1 + Cc1[nH]c2ccc(F)cc2c1-c1nc2c3cccnc3c3ncccc3c2[nH]1"
observed_result = "111%"

[[record]]
compound = "CC[C@@]1(O)C(=O)OCc2c1cc1n(c2=O)Cc2cc3c(CN(C)C)c(O)ccc3nc2-1 + Cc1cnc(CNC(=O)c2c(=O)c3ccc(N4CCCN(C)CC4)nc3n3c2sc2ccccc23)cn1"
observed_result = "64.3%"

[[record]]
compound = "Cc1[nH]c2ccccc2c1CCNCc1ccc(/C=C/C(=O)NO)cc1 + Cc1cnc(CNC(=O)c2c(=O)c3ccc(N4CCCN(C)CC4)nc3n3c2sc2ccccc23)cn1"
observed_result = "74%"


====

- Test system: A375 multi-cell spheroids with HUVEC/MSC, viability
- PROTOCOL_NOTES: Anticancer human tumor A375 cell line growth inhibition [GQUAD];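 further: spheroids exposed to compounds for seven days before readout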
- DETAILS: second compound 0.316 µM; first compound 3.16 µM; hits give low values
VALUE_KIND: viability, T/C (%)

[[record]]
compound = "CC(C)(O)C1CCC(Nc2ccc3ncc(-c4cccc(C(F)(F)F)c4)n3n2)CC1 (stereo not drawn) + Cc1[nH]c2ccc(F)cc2c1-c1nc2c3cccnc3c3ncccc3c2[nH]1"
observed_result = 77.6

[[record]]
compound = "Cc1cccc(N(C)C(=O)C2C(O)CCN2c2nc(C)cc(C(F)(F)F)c2C#N)c1 (stereo not drawn) + Cc1[nH]c2ccc(F)cc2c1-c1nc2c3cccnc3c3ncccc3c2[nH]1"
observed_result = 111

[[record]]
compound = "C=CC(=O)N1CCN(c2nc(=O)n(-c3c(C)ccnc3C(C)C)c3nc(-c4c(O)cccc4F)c(F)cc23)C(C)C1 (stereo not drawn) + CN(C)c1ccc(Nc2c3ccc(NC(=O)CCN4CCCC4)cc3nc3cc(NC(=O)CCN4CCCC4)ccc23)cc1"
observed_result = 101


====

- Tested on: A375 multi-cell spheroids with HUVEC/MSC, viability
- PROTOCOL_NOTES: Anticancer human tumor A375 cell line growth inhibition [GQUAD]; active = viability on the fitted dose curve at most 10% of control; inactive = the rest;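 further: spheroids exposed to compounds for seven days before readout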
- DETAILS: second compound 3.16 µM; first compound 10 µM
Outcomes: active, inactive

[[record]]
compound = "CCCS(=O)(=O)Nc1ccc(F)c(C(=O)c2c[nH]c3ncc(-c4ccc(Cl)cc4)cc23)c1F + Cc1[nH]c2ccc(F)cc2c1-c1nc2c3cccnc3c3ncccc3c2[nH]1"
category_label = "active"

[[record]]
compound = "O=c1[nH]cc(F)c(=O)[nH]1 + Cc1[nH]c2ccc(F)cc2c1-c1nc2c3cccnc3c3ncccc3c2[nH]1"
category_label = "inactive"

[[record]]
compound = "C=CC(=O)N1CCN(c2nc(=O)n(-c3c(C)ccnc3C(C)C)c3nc(-c4c(O)cccc4F)c(F)cc23)C(C)C1 (stereo not drawn) + Cc1[nH]c2ccc(F)cc2c1-c1nc2c3cccnc3c3ncccc3c2[nH]1"
category_label = "inactive"


====

- Tested on: A375 multi-cell spheroids with HUVEC/MSC, viability
- PROTOCOL_NOTES: Anticancer human tumor A375 cell line growth inhibition [GQUAD];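 further: spheroids exposed to compounds for seven days before readout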
- DETAILS: second compound 10 µM; first compound 0.000999 µM; hits give low values
VALUE_KIND: viability, T/C (%)

[[record]]
molecule = "CC[C@@]1(O)C(=O)OCc2c1cc1n(c2=O)Cc2cc3c(CN(C)C)c(O)ccc3nc2-1 + CN(C)c1ccc(Nc2c3ccc(NC(=O)CCN4CCCC4)cc3nc3cc(NC(=O)CCN4CCCC4)ccc23)cc1"
unit_tag = "%"
observed_result = 102

[[record]]
molecule = "CC[C@@]1(O)C(=O)OCc2c1cc1n(c2=O)Cc2cc3c(CN(C)C)c(O)ccc3nc2-1 + Cc1cnc(CNC(=O)c2c(=O)c3ccc(N4CCCN(C)CC4)nc3n3c2sc2ccccc23)cn1"
unit_tag = "%"
observed_result = 23.6

[[record]]
molecule = "Cc1[nH]c2ccccc2c1CCNCc1ccc(/C=C/C(=O)NO)cc1 + Cc1cnc(CNC(=O)c2c(=O)c3ccc(N4CCCN(C)CC4)nc3n3c2sc2ccccc23)cn1"
unit_tag = "%"
observed_result = 30.9

[[record]]
molecule = "Cn1ncnc1[C@H]1c2n[nH]c(=O)c3cc(F)cc(c23)N[C@@H]1c1ccc(F)cc1 + Cc1[nH]c2ccc(F)cc2c1-c1nc2c3cccnc3c3ncccc3c2[nH]1"
unit_tag = "%"
observed_result = 106


====

- System: A375 multi-cell spheroids with HUVEC/MSC, viability
- PROTOCOL_NOTES: Anticancer human tumor A375 cell line growth inhibition [GQUAD]; active means viability on the fitted dose curve at most 10% of control; inactive means the rest;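 further: spheroids exposed to compounds for seven days before readout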
- DETAILS: second compound 1 µM; first compound 0.0316 µM
Outcomes: 1 (active), 0 (inactive)

[[record]]
compound = "Nc1ccn(C2OC(CO)C(O)C2(F)F)c(=O)n1 (stereo not given) + Cc1cnc(CNC(=O)c2c(=O)c3ccc(N4CCCN(C)CC4)nc3n3c2sc2ccccc23)cn1"
study_target = "A375 multi-cell spheroids with HUVEC/MSC, viability"
category_label = 0

[[record]]
compound = "C#Cc1c(F)ccc2cc(O)cc(-c3ncc4c(N5CC6CCC(C5)N6)nc(OCC56CCCN5CC(F)C6)nc4c3F)c12 (stereo not given) + CN(C)c1ccc(Nc2c3ccc(NC(=O)CCN4CCCC4)cc3nc3cc(NC(=O)CCN4CCCC4)ccc23)cc1"
study_target = "A375 multi-cell spheroids with HUVEC/MSC, viability"
category_label = 0

[[record]]
compound = "C=CCn1c(=O)c2cnc(Nc3ccc(N4CCN(C)CC4)cc3)nc2n1-c1cccc(C(C)(C)O)n1 + CN(C)c1ccc(Nc2c3ccc(NC(=O)CCN4CCCC4)cc3nc3cc(NC(=O)CCN4CCCC4)ccc23)cc1"
study_target = "A375 multi-cell spheroids with HUVEC/MSC, viability"
category_label = 0

[[record]]
compound = "CCc1c2c(nc3ccc(O)cc13)-c1cc3c(c(=O)n1C2)COC(=O)[C@]3(O)CC + CN(C)c1ccc(Nc2c3ccc(NC(=O)CCN4CCCC4)cc3nc3cc(NC(=O)CCN4CCCC4)ccc23)cc1"
study_target = "A375 multi-cell spheroids with HUVEC/MSC, viability"
category_label = 1

[[record]]
compound = "Cc1cccc(N(C)C(=O)C2C(O)CCN2c2nc(C)cc(C(F)(F)F)c2C#N)c1 (stereo not given) + CN(C)c1ccc(Nc2c3ccc(NC(=O)CCN4CCCC4)cc3nc3cc(NC(=O)CCN4CCCC4)ccc23)cc1"
study_target = "A375 multi-cell spheroids with HUVEC/MSC, viability"
category_label = 0

[[record]]
compound = "Cc1[nH]c2ccccc2c1CCNCc1ccc(/C=C/C(=O)NO)cc1 + CN(C)c1ccc(Nc2c3ccc(NC(=O)CCN4CCCC4)cc3nc3cc(NC(=O)CCN4CCCC4)ccc23)cc1"
study_target = "A375 multi-cell spheroids with HUVEC/MSC, viability"
category_label = 0

[[record]]
compound = "COc1ccc([C@@H](O)c2cc(-c3ncnc4cc(N5CCOCC5)ccc34)c(F)cc2Cl)nn1 + Cc1[nH]c2ccc(F)cc2c1-c1nc2c3cccnc3c3ncccc3c2[nH]1"
study_target = "A375 multi-cell spheroids with HUVEC/MSC, viability"
category_label = 0

[[record]]
compound = "CC(C)(O)C1CCC(Nc2ccc3ncc(-c4cccc(C(F)(F)F)c4)n3n2)CC1 (stereo not given) + Cc1cnc(CNC(=O)c2c(=O)c3ccc(N4CCCN(C)CC4)nc3n3c2sc2ccccc23)cn1"
study_target = "A375 multi-cell spheroids with HUVEC/MSC, viability"
category_label = 0

[[record]]
compound = "Cc1cccc(N(C)C(=O)C2C(O)CCN2c2nc(C)cc(C(F)(F)F)c2C#N)c1 (stereo not given) + Cc1cnc(CNC(=O)c2c(=O)c3ccc(N4CCCN(C)CC4)nc3n3c2sc2ccccc23)cn1"
study_target = "A375 multi-cell spheroids with HUVEC/MSC, viability"
category_label = 0

[[record]]
compound = "C=CC(=O)N1CCN(c2nc(=O)n(-c3c(C)ccnc3C(C)C)c3nc(-c4c(O)cccc4F)c(F)cc23)C(C)C1 (stereo not given) + CN(C)c1ccc(Nc2c3ccc(NC(=O)CCN4CCCC4)cc3nc3cc(NC(=O)CCN4CCCC4)ccc23)cc1"
study_target = "A375 multi-cell spheroids with HUVEC/MSC, viability"
category_label = 0

